Molecular target: F508delCFTR (Homo sapiens, UniProt P13569, DEL508-508)
Construct: expressed in transfected cells; host or cells: CFBE41o- human lung-derived epithelial cells (CFBE4lo-F508delCFTR-HRP), doxycycline-inducible
Sequence (P13569 with tags, fused parts or gaps DEL508-508): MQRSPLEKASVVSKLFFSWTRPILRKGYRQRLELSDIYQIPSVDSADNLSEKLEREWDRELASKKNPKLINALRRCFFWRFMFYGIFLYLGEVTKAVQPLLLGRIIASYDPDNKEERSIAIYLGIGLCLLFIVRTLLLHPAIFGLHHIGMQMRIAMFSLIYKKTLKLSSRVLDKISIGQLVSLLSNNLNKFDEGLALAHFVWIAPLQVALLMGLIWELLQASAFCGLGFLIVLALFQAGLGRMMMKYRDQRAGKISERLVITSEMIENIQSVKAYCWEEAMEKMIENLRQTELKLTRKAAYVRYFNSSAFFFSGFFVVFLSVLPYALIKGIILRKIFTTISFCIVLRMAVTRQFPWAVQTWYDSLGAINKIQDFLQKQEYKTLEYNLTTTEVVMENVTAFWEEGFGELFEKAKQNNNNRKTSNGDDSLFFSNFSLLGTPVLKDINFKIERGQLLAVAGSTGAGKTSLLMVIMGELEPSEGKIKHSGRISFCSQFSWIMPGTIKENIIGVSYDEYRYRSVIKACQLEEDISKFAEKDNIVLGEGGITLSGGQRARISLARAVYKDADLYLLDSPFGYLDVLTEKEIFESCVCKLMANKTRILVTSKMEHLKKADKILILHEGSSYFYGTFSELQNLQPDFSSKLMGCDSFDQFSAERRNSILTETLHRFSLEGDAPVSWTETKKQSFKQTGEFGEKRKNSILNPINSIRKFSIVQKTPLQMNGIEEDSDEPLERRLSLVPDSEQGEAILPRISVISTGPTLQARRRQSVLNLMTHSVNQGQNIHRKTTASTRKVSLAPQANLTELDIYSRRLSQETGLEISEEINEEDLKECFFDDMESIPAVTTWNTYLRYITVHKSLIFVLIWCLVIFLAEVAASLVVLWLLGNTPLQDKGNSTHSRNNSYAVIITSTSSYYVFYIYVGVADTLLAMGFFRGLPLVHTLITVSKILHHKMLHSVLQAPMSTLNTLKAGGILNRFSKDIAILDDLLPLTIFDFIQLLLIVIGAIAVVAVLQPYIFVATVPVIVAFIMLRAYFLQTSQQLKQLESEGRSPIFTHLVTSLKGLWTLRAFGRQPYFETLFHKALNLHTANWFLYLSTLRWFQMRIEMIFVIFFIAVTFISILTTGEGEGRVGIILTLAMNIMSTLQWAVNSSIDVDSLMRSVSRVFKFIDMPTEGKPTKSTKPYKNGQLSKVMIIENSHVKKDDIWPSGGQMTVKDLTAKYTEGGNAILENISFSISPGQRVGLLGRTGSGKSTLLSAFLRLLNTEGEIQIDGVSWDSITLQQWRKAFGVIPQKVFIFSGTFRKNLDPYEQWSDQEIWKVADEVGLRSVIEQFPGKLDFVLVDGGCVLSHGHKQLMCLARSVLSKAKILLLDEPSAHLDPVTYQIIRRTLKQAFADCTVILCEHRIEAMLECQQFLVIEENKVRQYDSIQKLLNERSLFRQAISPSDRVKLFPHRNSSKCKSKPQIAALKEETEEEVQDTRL
Assay: Cell Surface Expression-Horse Radish Peroxidase (CSE-HRP) Assay
Assay type: cell-based
Settings: test compound without co-corrector; read-out: EC50 (without co-corrector)
pEC50: −log10 of the molar value.
outcome measure: pEC50

Solved entries:
> print(dat)
                                   compound  outcome.measure      observed
1  COc1ccc(Cl)cc1CN[C@H]1[C@H](C(C)(C)C)[C@@H](C(=O)O)N(C(=O)C2CCCCC2)[C@H]1c1ncccc1OC (racemic)            pEC50        < 5.00
2  CCC(C)c1ccc(OC)c(CN[C@H]2[C@H](C(C)(C)C)[C@@H](C(=O)O)N(C(=O)C3CCCCC3)[C@H]2c2ccccc2)c1 (stereo partly drawn)            pEC50        > 6.00
3  COc1ccc(C(C)(C)C)cc1CN[C@H]1[C@H](C(C)(C)C)[C@@H](C(=O)O)N(C(=O)C2CCCCC2)[C@H]1c1ccccc1OC(F)F            pEC50  5.00 to 6.00
4  CC(C)OC(=O)N1[C@H](C(=O)O)[C@@H](C(C)(C)C)[C@H](NCC2CCCC(C(F)(F)F)C2)[C@@H]1c1ccccc1 (stereo partly drawn)            pEC50  5.00 to 6.00

Form: compound = `COc1ccc(CN(C)C)cc1CN[C@H]1[C@H](C(C)(C)C)[C@@H](C(=O)O)N(C(=O)C2CCCCC2)[C@H]1c1ccccc1` ; pEC50 = < 5.00

Form: compound = `COc1cnc(N2CCCC2)cc1CN[C@H]1[C@H](C(C)(C)C)[C@@H](C(=O)O)N(C(=O)C2CCCCC2)[C@H]1c1ccccc1` ; pEC50 = 5.00 to 6.00

Form: compound = `COc1ccc(C(C)(C)C)cc1CN[C@H]1[C@H](C(C)(C)C)[C@@H](C(=O)O)N(C(=O)C2CC2)[C@H]1c1ccccc1` ; pEC50 = 5.00 to 6.00

Form: compound = COc1ccc(C(C)(C)C)cc1CN[C@H]1[C@H](C(C)(C)C)[C@@H](C(=O)O)N(C(=O)C2CCCC(C)(C)C2)[C@H]1c1ccccc1 (stereo partly drawn) ; pEC50 = > 6.00

Form: compound = `CC#CCOC(=O)N1[C@H](C(=O)O)[C@@H](C(C)(C)C)[C@H](NCc2cc(C(C)(C)C)ccc2OC)[C@@H]1c1ccccc1` ; pEC50 = 5.00 to 6.00

Form: compound = `COc1ccc(C(C)(C)C)cc1CN[C@H]1[C@H](C(C)(C)OC)[C@@H](C(=O)O)N(C(=O)C2CCCCC2)[C@H]1c1cccnc1N(C)C` ; pEC50 = 5.00 to 6.00

Form: compound = `COc1ccc(C(F)(F)F)cc1CN[C@H]1[C@H](C(C)(C)C)[C@@H](C(=O)O)N(C(=O)[C@@H]2CCCO2)[C@H]1c1ccccc1C(C)C` ; pEC50 = > 6.00

Form: compound = COc1ncc(C(F)(F)F)cc1CN[C@H]1[C@H](C(C)(C)C)[C@@H](C(=O)O)N(C(=O)C2CCCC(F)(F)C2)[C@H]1c1ccccc1 (stereo partly drawn) ; pEC50 = 5.00 to 6.00
